# target-of-assay: CD74 (human), P04233
# Sequence (P04233 whole entry): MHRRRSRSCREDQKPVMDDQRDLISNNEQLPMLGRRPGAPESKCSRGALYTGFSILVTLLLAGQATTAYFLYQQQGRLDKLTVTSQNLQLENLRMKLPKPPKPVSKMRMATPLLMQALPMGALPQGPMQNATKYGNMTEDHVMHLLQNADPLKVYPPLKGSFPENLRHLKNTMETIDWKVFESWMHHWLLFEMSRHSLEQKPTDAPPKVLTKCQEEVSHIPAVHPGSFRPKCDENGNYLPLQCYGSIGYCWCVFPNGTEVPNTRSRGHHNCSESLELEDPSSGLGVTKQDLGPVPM
# procedure-text: cell-based or functional assay
readout-kind: cell killing IC50, BDCM (AML) cells (nM)
Hi! Could you send only the number? It should be in nM, unit omitted.

Recorded cell killing IC50, BDCM (AML) cells, per entry:
Conjugate B (anti-CD74 IgG-PEG4-maytansine conjugate) (antibody, V domains shown, here or on the partner: modified amino acid residue 30 (pAMF) according to Example 2, position not stated for this conjugate, linked to a PEG4-maytansine linker-payload) VH: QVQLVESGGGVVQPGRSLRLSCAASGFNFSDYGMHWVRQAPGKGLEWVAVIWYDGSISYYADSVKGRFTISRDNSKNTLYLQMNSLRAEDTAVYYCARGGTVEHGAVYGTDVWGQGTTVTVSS VL: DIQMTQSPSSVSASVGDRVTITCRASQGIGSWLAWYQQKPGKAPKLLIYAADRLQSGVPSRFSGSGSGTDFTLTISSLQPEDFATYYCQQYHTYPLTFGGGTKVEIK
15
Conjugate E (anti-CD74 IgG-PEG4-MMAF conjugate) (antibody, V domains shown, here or on the partner: modified amino acid residue 30 (pAMF) according to Example 2, position not stated for this conjugate, linked to PEG4-MMAF) VH: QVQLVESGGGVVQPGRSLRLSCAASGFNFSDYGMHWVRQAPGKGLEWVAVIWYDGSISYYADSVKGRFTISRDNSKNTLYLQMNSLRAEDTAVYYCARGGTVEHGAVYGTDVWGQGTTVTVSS VL: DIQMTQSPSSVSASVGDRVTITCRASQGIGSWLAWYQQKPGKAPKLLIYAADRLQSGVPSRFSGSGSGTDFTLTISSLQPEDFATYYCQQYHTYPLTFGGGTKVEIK
3.3
Conjugate F (anti-CD74 IgG-PEG4-MMAE conjugate) (antibody, V domains shown, here or on the partner: modified amino acid residue 30 (pAMF) according to Example 2, position not stated for this conjugate, linked to PEG4-MMAE) VH: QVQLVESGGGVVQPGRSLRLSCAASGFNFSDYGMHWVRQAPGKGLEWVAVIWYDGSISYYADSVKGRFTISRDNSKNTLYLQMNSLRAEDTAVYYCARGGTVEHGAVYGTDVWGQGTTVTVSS VL: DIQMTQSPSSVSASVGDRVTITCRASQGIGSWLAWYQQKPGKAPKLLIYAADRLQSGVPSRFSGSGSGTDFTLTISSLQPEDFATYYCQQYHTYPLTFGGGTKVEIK
1.4

Request: Supply recorded cell killing IC50, BDCM (AML) cells for Conjugate A (anti-CD74 IgG-DBCO-PEG4-maytansine conjugate) (antibody, V domains shown, here or on the partner: para-azidomethyl-L-phenylalanine (pAMF, residue 30) at heavy chain EU position 404 (constant region, outside SEQ ID NO 236), linked to DBCO-PEG4-maytansine) VH: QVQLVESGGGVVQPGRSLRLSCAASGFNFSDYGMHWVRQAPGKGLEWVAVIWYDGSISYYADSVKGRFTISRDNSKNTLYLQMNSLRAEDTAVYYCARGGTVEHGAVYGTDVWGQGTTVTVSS VL: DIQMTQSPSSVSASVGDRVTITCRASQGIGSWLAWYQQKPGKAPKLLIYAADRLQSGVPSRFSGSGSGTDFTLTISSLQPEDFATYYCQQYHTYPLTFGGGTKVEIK here.
Result: 4.6

Origin of measurements: patent US20200207859A1
